Taken from patent US20210274823A1.

# assayInfo: Organoleptic test of the compounds of formula (I) against sucrose
# Design: key: 3: sweeter than the control solution; 2: sweetness comparable with the control solution; 1: less sweet than the control solution but still sweet
# experimentalSetup: test compound dissolved in water (Evian) at 400 ppm; control sucrose 20 g/l; panel of 3-4 panelists
Examples of molecules with documented sweetness compared to sucrose follow.
measuredMetric: sweetness compared to sucrose

INSERT INTO assay_data (molecule, measuredmetric, numericresult) VALUES
  ('CC(C)=CCC[C@](C)(O[C@@H]1O[C@H](CO[C@@H]2OC[C@@H](O)[C@H](O)[C@H]2O)[C@@H](O)[C@H](O)[C@H]1O)[C@H]1CC[C@]2(C)[C@@H]1[C@H](O)CC1[C@@]3(C)C[C@@H](O)[C@H](O[C@@H]4O[C@H](CO)[C@@H](O)[C@H](O)[C@H]4O[C@@H]4O[C@H](CO)[C@@H](O)[C@H](O)[C@H]4O)C(C)(C)C3CC[C@]12C (some centres unmarked)', 'sweetness compared to sucrose', 2),
  ('CC(CO)C(=O)CC[C@](C)(O[C@@H]1O[C@H](CO)[C@@H](O)[C@H](O)[C@H]1O)[C@H]1CC[C@]2(C)[C@@H]1[C@H](O)CC1[C@@]3(C)C[C@@H](O)[C@H](O[C@@H]4O[C@H](CO)[C@@H](O)[C@H](O)[C@H]4O[C@@H]4O[C@H](CO)[C@@H](O)[C@H](O)[C@H]4O)C(C)(C)C3CC[C@]12C (some centres unmarked) [Compound L]', 'sweetness compared to sucrose', 2),
  ('CC(C)(O)/C=C/C[C@](C)(O[C@@H]1O[C@H](CO)[C@@H](O)[C@H](O)[C@H]1O)[C@H]1CC[C@]2(C)C1[C@H](O)CC1[C@@]3(C)C[C@@H](O)[C@H](O[C@@H]4O[C@H](CO)[C@@H](O)[C@H](O)[C@H]4O[C@@H]4O[C@H](CO)[C@@H](O)[C@H](O)[C@H]4O)C(C)(C)C3CC[C@]12C (some centres unmarked)', 'sweetness compared to sucrose', 3),
  ('CC1(C)C2CC[C@]3(C)C(C[C@@H](O)[C@@H]4[C@@H]([C@](C)(CCCO)O[C@@H]5O[C@H](CO)[C@@H](O)[C@H](O)[C@H]5O)CC[C@]43C)[C@@]2(C)C[C@@H](O)[C@@H]1O[C@@H]1O[C@H](CO)[C@@H](O)[C@H](O)[C@H]1O[C@@H]1O[C@H](CO)[C@@H](O)[C@H](O)[C@H]1O (some centres unmarked)', 'sweetness compared to sucrose', 2),
  ('C=C(C)C(CC[C@](C)(O[C@@H]1O[C@H](CO[C@@H]2OC[C@@H](O)[C@H](O)[C@H]2O)[C@@H](O)[C@H](O)[C@H]1O)[C@H]1CC[C@]2(C)[C@@H]1[C@H](O)CC1[C@@]3(C)C[C@@H](O)[C@H](O[C@@H]4O[C@H](CO)[C@@H](O)[C@H](O)[C@H]4O[C@@H]4O[C@H](CO)[C@@H](O)[C@H](O)[C@H]4O)C(C)(C)C3CC[C@]12C)OO (some centres unmarked)', 'sweetness compared to sucrose', 2);

----------
# assayInfo: Organoleptic test of the compounds of formula (I) against sucrose
# Parameters: key: 3: sweeter than the control solution; 2: sweetness comparable with the control solution; 1: less sweet than the control solution but still sweet
# experimentalSetup: test compound dissolved in water (Evian) at 400 ppm; control sucrose 20 g/l; panel of 3-4 panelists
measuredMetric: sweetness compared to sucrose

INSERT INTO assay_data (molecule, numericresult) VALUES
  ('CC(C)=CCC[C@](C)(O[C@@H]1O[C@H](CO)[C@@H](O)[C@H](O)[C@H]1O)[C@H]1CC[C@]2(C)[C@@H]1[C@H](O)CC1[C@@]3(C)C[C@@H](O)[C@H](O[C@@H]4O[C@H](CO)[C@@H](O)[C@H](O)[C@H]4O[C@@H]4O[C@H](CO)[C@@H](O)[C@H](O)[C@H]4O)C(C)(C)C3CC[C@]12C (stereo partly drawn)', 3),
  ('CC(C)(/C=C/C[C@@](C)(O[C@@H]1O[C@H](CO)[C@@H](O)[C@H](O)[C@H]1O)[C@H]1CC[C@]2(C)[C@@H]1[C@H](O)C[C@@H]1[C@@]3(C)C[C@@H](O)[C@H](O[C@@H]4O[C@H](CO)[C@@H](O)[C@H](O)[C@H]4O[C@@H]4O[C@H](CO)[C@@H](O)[C@H](O)[C@H]4O)C(C)(C)[C@@H]3CC[C@]12C)OO (stereo in doubt)', 3),
  ('CC(CO)C(=O)CC[C@](C)(O[C@@H]1O[C@H](CO)[C@@H](O)[C@H](O)[C@H]1O)[C@H]1CC[C@]2(C)[C@@H]1[C@H](O)CC1[C@@]3(C)C[C@@H](O)[C@H](O[C@@H]4O[C@H](CO)[C@@H](O)[C@H](O)[C@H]4O[C@@H]4O[C@H](CO)[C@@H](O)[C@H](O)[C@H]4O)C(C)(C)C3CC[C@]12C (stereo partly drawn) [Compound K]', 3),
  ('C=C(C)C(O)CC[C@](C)(O[C@@H]1O[C@H](CO[C@@H]2OC[C@@H](O)[C@H](O)[C@H]2O)[C@@H](O)[C@H](O)[C@H]1O)[C@H]1CC[C@]2(C)[C@@H]1[C@H](O)CC1[C@@]3(C)C[C@@H](O)[C@H](O[C@@H]4O[C@H](CO)[C@@H](O)[C@H](O)[C@H]4O[C@@H]4O[C@H](CO)[C@@H](O)[C@H](O)[C@H]4O)C(C)(C)C3CC[C@]12C (stereo partly drawn)', 2),
  ('CC(C)(/C=C/C[C@](C)(O[C@@H]1O[C@H](CO[C@@H]2OC[C@@H](O)[C@H](O)[C@H]2O)[C@@H](O)[C@H](O)[C@H]1O)[C@H]1CC[C@]2(C)C1[C@H](O)CC1[C@@]3(C)C[C@@H](O)[C@H](O[C@@H]4O[C@H](CO)[C@@H](O)[C@H](O)[C@H]4O[C@@H]4O[C@H](CO)[C@@H](O)[C@H](O)[C@H]4O)C(C)(C)C3CC[C@]12C)OO (stereo partly drawn)', 2),
  ('CC(C)=CCC[C@](C)(O[C@@H]1O[C@H](CO)[C@@H](O)[C@H](O)[C@H]1O)[C@H]1CC[C@]2(C)[C@@H]1[C@H](O)CC1[C@@]3(C)C[C@@H](O)[C@H](O[C@@H]4O[C@H](COC5OCC(O)C(O)C5O)[C@@H](O)[C@H](O)[C@H]4O[C@@H]4O[C@H](CO)[C@@H](O)[C@H](O)[C@H]4O)C(C)(C)C3CC[C@]12C (stereo partly drawn)', 3);

----------
# assayInfo: Organoleptic test of the compounds of formula (I) against sucrose
# experimentalSetup: test compound dissolved in water at 400 ppm; panel of 3-4 panelists
measuredMetric: Comment (taste impression)

INSERT INTO measurements (compound, measuredmetric, result) VALUES
  ('CC(C)=CCC[C@](C)(O[C@@H]1O[C@H](CO)[C@@H](O)[C@H](O)[C@H]1O)[C@H]1CC[C@]2(C)[C@@H]1[C@H](O)CC1[C@@]3(C)C[C@@H](O)[C@H](O[C@@H]4O[C@H](CO)[C@@H](O)[C@H](O)[C@H]4O[C@@H]4O[C@H](CO)[C@@H](O)[C@H](O)[C@H]4O)C(C)(C)C3CC[C@]12C (stereo partly shown) [Compound B]', 'Comment (taste impression)', 'Slightly bitter'),
  ('CC(C)(/C=C/C[C@](C)(O[C@@H]1O[C@H](CO[C@@H]2OC[C@@H](O)[C@H](O)[C@H]2O)[C@@H](O)[C@H](O)[C@H]1O)[C@H]1CC[C@]2(C)C1[C@H](O)CC1[C@@]3(C)C[C@@H](O)[C@H](O[C@@H]4O[C@H](CO)[C@@H](O)[C@H](O)[C@H]4O[C@@H]4O[C@H](CO)[C@@H](O)[C@H](O)[C@H]4O)C(C)(C)C3CC[C@]12C)OO (stereo partly shown) [Compound G]', 'Comment (taste impression)', 'Slightly bitter'),
  ('CC(C)=CCC[C@](C)(O[C@@H]1O[C@H](CO)[C@@H](O)[C@H](O)[C@H]1O)[C@H]1CC[C@]2(C)[C@@H]1[C@H](O)CC1[C@@]3(C)C[C@@H](O)[C@H](O[C@@H]4O[C@H](COC5OCC(O)C(O)C5O)[C@@H](O)[C@H](O)[C@H]4O[C@@H]4O[C@H](CO)[C@@H](O)[C@H](O)[C@H]4O)C(C)(C)C3CC[C@]12C (stereo partly shown) [Compound H]', 'Comment (taste impression)', 'Slightly bitter');
